Entries and their measured Ki follow.
Target: Human norepinephrine transporter (NET) (Homo sapiens (Human), UniProt P23975)
Sequence (P23975 whole entry): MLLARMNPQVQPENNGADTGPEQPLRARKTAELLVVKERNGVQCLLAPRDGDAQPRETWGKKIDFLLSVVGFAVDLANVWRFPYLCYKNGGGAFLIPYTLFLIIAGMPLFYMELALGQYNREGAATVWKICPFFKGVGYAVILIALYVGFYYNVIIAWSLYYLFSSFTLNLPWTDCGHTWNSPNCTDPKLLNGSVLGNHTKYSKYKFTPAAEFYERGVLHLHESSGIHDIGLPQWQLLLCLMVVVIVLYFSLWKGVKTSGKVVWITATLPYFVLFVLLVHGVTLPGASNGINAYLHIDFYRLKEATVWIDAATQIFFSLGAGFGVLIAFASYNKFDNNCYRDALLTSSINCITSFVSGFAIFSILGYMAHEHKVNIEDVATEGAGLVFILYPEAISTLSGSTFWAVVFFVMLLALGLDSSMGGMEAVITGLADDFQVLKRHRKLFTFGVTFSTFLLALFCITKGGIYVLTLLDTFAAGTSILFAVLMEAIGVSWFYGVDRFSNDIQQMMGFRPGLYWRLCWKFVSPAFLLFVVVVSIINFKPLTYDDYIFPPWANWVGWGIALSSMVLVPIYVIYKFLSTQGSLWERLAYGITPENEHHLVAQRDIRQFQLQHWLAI
Test: Binding Assay to Human Norepinephrine Transporter (NET)
Settings: Table 2, dual compounds; human NET enriched membranes, 5 nM [3H]-Nisoxetin; read-out: Ki(nM) NET Hum

* CNCCC(Oc1ccc(CN2CCN(C)c3nc(C)ccc3C2=O)cc1)c1cccs1 (stereo not shown) | 500 to 1000 nM
* CNCC[C@H](Oc1cccc(N2CCN(C)c3nc(C(F)(F)F)ccc3C2=O)c1)c1cccs1 | 500 to 1000 nM
* CNCCC(Oc1cccc(CN2CCN(C)c3ccccc3C2)c1)c1cccs1 (stereo not shown) | 500 to 1000 nM
* CNCC[C@H](Oc1ccc(CN2CCN(C)c3nc(OC)ccc3C2=O)c(F)c1)c1ccccc1 | < 100 nM
* CNCC[C@H](Oc1ccc(CN2CCN(C)c3nc(OC)ccc3C2=O)cc1)c1cccs1 | 100 to 500 nM

Task item: Record CNCCC(OCc1cccc(N2CCNCCC2=O)c1)c1ccccc1 (stereo not shown) : what is its Ki with Human norepinephrine transporter (NET) (Homo sapiens (Human), UniProt P23975)?
Reply: 100 to 500 nM

Task item: Record CNCC[C@@H](Oc1cccc(N2CCN(C(C)C)CCC2=O)c1)c1ccsc1 : what is its Ki with Human norepinephrine transporter (NET) (Homo sapiens (Human), UniProt P23975)?
Reply: < 100 nM

Task item: Record CCNc1ccc2c(n1)N(C)CCN(c1cccc(COC(CCNC)c3ccccc3)c1)C2=O (stereo not shown) : what is its Ki with Human norepinephrine transporter (NET) (Homo sapiens (Human), UniProt P23975)?
Reply: 500 to 1000 nM

====

Target: Human α2δ-1 subunit of Cav2.2 calcium channel (Homo sapiens (Human), UniProt P54289)
Sequence (P54289 25-1103): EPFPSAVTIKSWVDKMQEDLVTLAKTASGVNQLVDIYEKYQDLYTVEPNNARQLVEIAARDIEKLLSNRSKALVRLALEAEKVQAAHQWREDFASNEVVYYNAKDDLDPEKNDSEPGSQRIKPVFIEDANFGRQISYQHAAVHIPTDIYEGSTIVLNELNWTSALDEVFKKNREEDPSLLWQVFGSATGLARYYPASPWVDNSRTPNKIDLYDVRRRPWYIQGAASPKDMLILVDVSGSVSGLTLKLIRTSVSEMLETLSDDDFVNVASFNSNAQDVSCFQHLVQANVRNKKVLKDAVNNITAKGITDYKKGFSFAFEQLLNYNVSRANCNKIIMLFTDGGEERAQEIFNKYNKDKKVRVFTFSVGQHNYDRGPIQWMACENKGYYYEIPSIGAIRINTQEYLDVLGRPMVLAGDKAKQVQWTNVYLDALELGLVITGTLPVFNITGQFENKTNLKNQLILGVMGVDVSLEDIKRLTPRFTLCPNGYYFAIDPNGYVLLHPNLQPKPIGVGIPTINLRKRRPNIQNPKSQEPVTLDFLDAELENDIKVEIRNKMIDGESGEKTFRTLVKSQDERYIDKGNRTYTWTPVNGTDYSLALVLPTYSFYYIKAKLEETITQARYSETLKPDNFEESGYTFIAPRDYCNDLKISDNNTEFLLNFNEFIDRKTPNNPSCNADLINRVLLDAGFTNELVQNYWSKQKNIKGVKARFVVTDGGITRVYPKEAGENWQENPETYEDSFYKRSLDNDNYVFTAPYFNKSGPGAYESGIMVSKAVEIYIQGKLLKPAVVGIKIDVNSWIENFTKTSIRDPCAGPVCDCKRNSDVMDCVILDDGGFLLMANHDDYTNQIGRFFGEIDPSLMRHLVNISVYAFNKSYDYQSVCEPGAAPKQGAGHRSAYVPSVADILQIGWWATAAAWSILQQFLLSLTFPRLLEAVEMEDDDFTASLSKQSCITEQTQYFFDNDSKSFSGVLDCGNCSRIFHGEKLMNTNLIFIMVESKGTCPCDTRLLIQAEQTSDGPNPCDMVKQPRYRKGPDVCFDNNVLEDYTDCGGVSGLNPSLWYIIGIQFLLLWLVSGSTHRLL
Assay: Binding Assay to Human α2δ-1 Subunit of Cav2.2 Calcium Channel
Conditions: Table 2, dual compounds; human α2δ-1 enriched membranes, 15 nM [3H]-Gabapentin; read-out: Ki(nM) alpha2delta Hum
quantity_kind: Ki

* CNCC[C@H](Oc1ccc(CN2CCCn3nccc3C2=O)c(F)c1)c1ccccc1 [Example 145] | 500 to 3000 nM
* CCNc1ccc2c(n1)N(C)CCN(Cc1ccc(O[C@@H](CCNC)c3cccc(F)c3)cc1F)C2=O [Example 148] | 100 to 500 nM
* CNCC[C@H](Oc1ccc(CN2CCCn3nc(C)cc3C2=O)c(F)c1)c1ccccc1 [Example 139] | 100 to 500 nM
* CNCCC(Oc1cccc(N2CCN(C)c3nc(N(C)C)ccc3C2=O)c1)c1cccs1 (centres unmarked) [Example 70] | 500 to 3000 nM
* CNCC[C@H](Oc1ccc(CN2CCN(C)c3ccccc3C2=O)cc1)c1cccs1 [Example 98] | 500 to 3000 nM

Task item: # Ki lookup, item CNCC[C@H](Oc1cc(F)cc(N2CCN(C)c3ncccc3C2=O)c1)c1cccs1 [Example 120]
Reply: < 100 nM

Task item: # Ki lookup, item CNCCC(OCc1cccc(N2CCN(C)CCC2=O)c1)c1cccs1 (centres unmarked) [Example 84]
Reply: 500 to 3000 nM

Task item: # Ki lookup, item CNCC[C@H](Oc1ccc(CN2CCN(C)c3nc(O)ccc3C2=O)c(F)c1)c1ccccc1 [Example 142]
Reply: > 3000 nM

====

Molecular target: Human α2δ-1 subunit of Cav2.2 calcium channel (Homo sapiens (Human), UniProt P54289)
Assay: Binding Assay to Human α2δ-1 Subunit of Cav2.2 Calcium Channel
Conditions: Table 1; human α2δ-1 enriched membranes, 15 nM [3H]-Gabapentin; read-out: Ki(nM) alpha2delta Hum
quantity_kind: Ki

• CNCC[C@H](Oc1ccc(CN2CCCn3nccc3C2=O)c(F)c1)c1ccccc1 = 500 to 3000 nM
• CNCC[C@H](Oc1ccc(CN2CCN(C)c3ncc(F)cc3C2=O)c(F)c1)c1ccccc1 = 100 to 500 nM
• CNCCC(OCc1cccc(N2CCN(C)CCC2=O)c1)c1cccs1 (centres unmarked) = 500 to 3000 nM
• CNCC[C@H](Oc1ccc(CN2CCN(C)c3ncccc3C2=O)cc1)c1cccs1 = < 100 nM
• CNCCC(Oc1ccc(CN2CCN(C)c3nc(N)ccc3C2=O)c(F)c1)c1cccc(F)c1 (centres unmarked) = < 100 nM

Task item: Record CNCCC(Oc1ccc(CN2CCN(C)c3ncccc3C2=O)c(F)c1)c1ccccc1F (centres unmarked) : what is its Ki with Human α2δ-1 subunit of Cav2.2 calcium channel (Homo sapiens (Human), UniProt P54289)?
Reply: 100 to 500 nM

Task item: Record CNCCC(OCc1cccc(N2CCN(C)c3cc(F)cnc3C2=O)c1)c1ccccc1 (centres unmarked) : what is its Ki with Human α2δ-1 subunit of Cav2.2 calcium channel (Homo sapiens (Human), UniProt P54289)?
Reply: 100 to 500 nM

Task item: Record CNCCC(Oc1ccc(CN2CCN(C)c3ncccc3C2=O)cc1)c1cccs1 (centres unmarked) : what is its Ki with Human α2δ-1 subunit of Cav2.2 calcium channel (Homo sapiens (Human), UniProt P54289)?
Reply: < 100 nM

====

Target: Human α2δ-1 subunit of Cav2.2 calcium channel (Homo sapiens (Human))
Experiment: Binding Assay to Human α2δ-1 Subunit of Cav2.2 Calcium Channel
Conditions: Table 1; human α2δ-1 enriched membranes, 15 nM [3H]-Gabapentin; read-out: Ki(nM) alpha2delta Hum
Entries and their measured Ki follow.

• CNCC[C@H](Oc1ccc(CN2CCN(C)c3nc(C)ccc3C2=O)cc1)c1cccs1 [Example 91] = 100 to 500 nM
• CNCC[C@@H](Oc1cccc(N2CCN(C(C)C)CCC2=O)c1)c1cccs1 [Example 67] = 100 to 500 nM

Task item: Record CN1CCN(c2cccc(COC(CCNCCF)c3ccccc3)c2)C(=O)c2ccccc21 (centres unmarked) [Example 44] : what is its Ki with Human α2δ-1 subunit of Cav2.2 calcium channel (Homo sapiens (Human))?
Reply: 500 to 3000 nM

Task item: Record CNCC[C@H](Oc1ccc(CN2CCN(C)c3ncccc3C2=O)c(F)c1)c1cccs1 [Example 108] : what is its Ki with Human α2δ-1 subunit of Cav2.2 calcium channel (Homo sapiens (Human))?
Reply: < 100 nM

Task item: Record CNCC[C@@H](OCc1cccc(N2CCN(C)c3ccccc3C2=O)c1)c1cccs1 [Example 14] : what is its Ki with Human α2δ-1 subunit of Cav2.2 calcium channel (Homo sapiens (Human))?
Reply: 100 to 500 nM

====

Target: Human α2δ-1 subunit of Cav2.2 calcium channel (Homo sapiens (Human))
Test: Binding Assay to Human α2δ-1 Subunit of Cav2.2 Calcium Channel
Settings: Table 1; human α2δ-1 enriched membranes, 15 nM [3H]-Gabapentin; read-out: Ki(nM) alpha2delta Hum
quantity_kind: Ki

Task item: Record CNCC[C@H](Oc1cccc(N2CCN(C(C)C)CCC2=O)c1)c1ccsc1 : what is its Ki with Human α2δ-1 subunit of Cav2.2 calcium channel (Homo sapiens (Human))?
Reply: 100 to 500 nM

====

Biological target: Human norepinephrine transporter (NET) (Homo sapiens (Human))
Assay: Binding Assay to Human Norepinephrine Transporter (NET)
Details: Table 2, dual compounds; human NET enriched membranes, 5 nM [3H]-Nisoxetin; read-out: Ki(nM) NET Hum
Experimental: Binding Assay to Human Norepinephrine Transporter (NET). Human norepinephrine transporter (NET) enriched membranes (5 μg) were incubated with 5 nM of radiolabeled [3H]-Nisoxetin in assay buffer containing 50 mM Tris-HCl, 120 mM NaCl, 5 mM KCl, pH 7.4. NSB (non specific binding) was measured by adding 10 μM desipramine. The binding of the test compound was measured in five different concentrations. […]
quantity_kind: Ki

- CNCC[C@H](Oc1cccc(N2CCN(C)c3nc(N)ccc3C2=O)c1)c1cccs1 [Example 83]: 100 to 500 nM
- CNCC[C@H](Oc1ccc(CN2CCN(C)c3ncccc3C2=O)cc1)c1cccs1 [Example 90]: 100 to 500 nM
- CNCC[C@H](Oc1ccc(CN2CCN(C)c3ncccc3C2=O)c(Cl)c1)c1ccccc1 [Example 141]: < 100 nM

// switching to the query compound
Task item: # Ki lookup, item CNCCC(Oc1ccc(F)c(N2CCN(C)c3ncccc3C2=O)c1)c1cccc(F)c1 (stereo not shown) [Example 119]
Reply: < 100 nM

====

Molecular target: Human α2δ-1 subunit of Cav2.2 calcium channel (Homo sapiens (Human))
Experiment: Binding Assay to Human α2δ-1 Subunit of Cav2.2 Calcium Channel
Details: Table 2, dual compounds; human α2δ-1 enriched membranes, 15 nM [3H]-Gabapentin; read-out: Ki(nM) alpha2delta Hum
Entries and their measured Ki follow.

Here's what some known entries look like.
• CNCC[C@H](Oc1ccc(CN2CCN(C)c3nc(N)ccc3C2=O)c(F)c1)c1cccc(F)c1 = < 100 nM
• CNCC[C@H](Oc1ccc(CN2CCN(C)c3ncccc3C2=O)c(Cl)c1)c1cccc(F)c1 = < 100 nM

Task item: Record CNCC[C@H](Oc1ccc(CN2CCN(C)c3ncccc3C2=O)c(C)c1)c1ccccc1 : what is its Ki with Human α2δ-1 subunit of Cav2.2 calcium channel (Homo sapiens (Human))?
Reply: 100 to 500 nM

Task item: Record CNCCC(Oc1cccc(C(=O)N2CCCN(C)CC2)c1)c1ccccc1 (centres unmarked) : what is its Ki with Human α2δ-1 subunit of Cav2.2 calcium channel (Homo sapiens (Human))?
Reply: 500 to 3000 nM
